target: T1, Rae1(31-368)-Nup98(157-213) heterodimer (human, UniProt P78406 31-368; P52948 157-213); assay: ITC; conditions: both partners purified
T1 construct: also called Rae1-Nup98; Rae1-Nup98 complex
T1 sequence (P78406 31-368, chain 1 of 2): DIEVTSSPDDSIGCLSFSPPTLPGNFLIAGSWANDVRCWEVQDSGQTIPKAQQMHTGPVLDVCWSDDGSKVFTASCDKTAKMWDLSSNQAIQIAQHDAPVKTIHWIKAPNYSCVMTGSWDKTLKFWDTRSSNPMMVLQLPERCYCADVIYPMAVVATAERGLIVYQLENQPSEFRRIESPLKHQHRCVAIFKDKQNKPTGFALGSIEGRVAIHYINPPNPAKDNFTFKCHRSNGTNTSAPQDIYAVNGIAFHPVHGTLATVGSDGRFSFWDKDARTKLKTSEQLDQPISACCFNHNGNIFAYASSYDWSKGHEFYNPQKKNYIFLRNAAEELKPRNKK
T1 sequence (P52948 157-213, chain 2 of 2): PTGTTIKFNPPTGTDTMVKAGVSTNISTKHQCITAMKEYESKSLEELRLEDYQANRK
RECORDED ENDPOINT: stoichiometry N

Reported stoichiometry N, binder YSELDDEEPMELD [SARS-CoV ORF6-YP] : ____
0.62

Which stoichiometry N is listed for YSELDDEEPMELDYP [SARS-CoV ORF6 C3] ?
0.63

Consider the binder YSQLDEEQPM (source: synthetic peptide) [SARS-CoV-2- ORF6-EID] and give its measured stoichiometry N.
1.01

What measured stoichiometry N goes with DEMDTHDPNQLRY [VSV-M-NTE] ?
0.304
